Average cell viability, BEAS-2B tested on human bronchial epithelial cells (BEAS-2B): recorded values; also: test concentration or dose not given here
Ends that are not written are not given here.
Just the number, please.

Some substances with recorded Average cell viability, BEAS-2B:
# SUBSTANCE, NUMBER
records = [
    ("SNDPVA [TaPep71]", 108.14),
    ("DFKEELPK [TaPep42]", 106.12),
    ("VARLEA [TaPep9]", 112.30),
    ("YQAENKH [TaPep14]", 116.78),
    ("LQDVVE [TaPep24]", 113.59),
    ("EVGMQE [TaPep56]", 108.94),
    ("EQPLQA [TaPep21]", 98.84),
    ("IAVPHEP [TaPep47]", 106.38),
]

Now examine the next entry.
Readout Average cell viability, BEAS-2B for DAELDK [TaPep34] , test system human bronchial epithelial cells (BEAS-2B), was 99.04

====

Cell viability, HUVEC, Data1 tested on human umbilical vein endothelial cells (HUVEC): recorded values
Ends that are not written are not given here.
Just the number, please.

# SUBSTANCE, Cell viability, HUVEC, Data1
rows = [
    ("AEDNSL [TaPep43]", 104.42),
    ("VARLEA [TaPep9]", 97.15),
    ("TAEQVA [TaPep33]", 106.25),
]

Now examine the next entry.
Readout Cell viability, HUVEC, Data1 for EVGMQE [TaPep56] , test system human umbilical vein endothelial cells (HUVEC), was 96.04

====

Cell viability, BEAS-2B, Data2 tested on human bronchial epithelial cells (BEAS-2B): recorded values; also: test concentration or dose not given here
Ends that are not written are not given here.
Just the number, please.

# SUBSTANCE, Cell viability, BEAS-2B, Data2
rows = [
    ("AQDDLP [TaPep20]", 96.91),
    ("VARLEA [TaPep9]", 115.45),
    ("PPLENT [TaPep39]", 113.86),
    ("LGDDLVK [TaPep19]", 110.77),
]

Readout Cell viability, BEAS-2B, Data2 for DQKVLA [TaPep3] , test system human bronchial epithelial cells (BEAS-2B), was 102.49

Readout Cell viability, BEAS-2B, Data2 for EFPEQN [TaPep17] , test system human bronchial epithelial cells (BEAS-2B), was 107.58

Readout Cell viability, BEAS-2B, Data2 for YAGNAP [TaPep10] , test system human bronchial epithelial cells (BEAS-2B), was 95.01

Readout Cell viability, BEAS-2B, Data2 for AKDEKEL [TaPep1] , test system human bronchial epithelial cells (BEAS-2B), was 114.46

Readout Cell viability, BEAS-2B, Data2 for AQSSLS [TaPep40] , test system human bronchial epithelial cells (BEAS-2B), was 94.02

Readout Cell viability, BEAS-2B, Data2 for VPDELN [TaPep23] , test system human bronchial epithelial cells (BEAS-2B), was 92.32

====

Average cell viability, HEK293T tested on human embryonic kidney cells (HEK293T): recorded values; also: test concentration or dose not given here
Ends that are not written are not given here.
Just the number, please.

Some substances with recorded Average cell viability, HEK293T:
# SUBSTANCE, Average cell viability, HEK293T
records = [
    ("FTEELE [TaPep32]", 100.73),
    ("DQEPVE [TaPep44]", 102.43),
    ("LWGPVT [TaPep72]", 100.76),
    ("NNDDEES [TaPep50]", 101.39),
    ("TQEVVN [TaPep25]", 100.16),
]

Now examine the next entry.
Readout Average cell viability, HEK293T for FPEQQD [TaPep16] , test system human embryonic kidney cells (HEK293T), was 100.13
